These entries and their values trace back to patent US20250243286A1.

- ASSAY TARGET: ActRIIA and ActRIIB (on TGFB/SMAD SBE Reporter HEK293 cells) (human)
- Sequence (chain, as listed by the source, chain 1 of 2): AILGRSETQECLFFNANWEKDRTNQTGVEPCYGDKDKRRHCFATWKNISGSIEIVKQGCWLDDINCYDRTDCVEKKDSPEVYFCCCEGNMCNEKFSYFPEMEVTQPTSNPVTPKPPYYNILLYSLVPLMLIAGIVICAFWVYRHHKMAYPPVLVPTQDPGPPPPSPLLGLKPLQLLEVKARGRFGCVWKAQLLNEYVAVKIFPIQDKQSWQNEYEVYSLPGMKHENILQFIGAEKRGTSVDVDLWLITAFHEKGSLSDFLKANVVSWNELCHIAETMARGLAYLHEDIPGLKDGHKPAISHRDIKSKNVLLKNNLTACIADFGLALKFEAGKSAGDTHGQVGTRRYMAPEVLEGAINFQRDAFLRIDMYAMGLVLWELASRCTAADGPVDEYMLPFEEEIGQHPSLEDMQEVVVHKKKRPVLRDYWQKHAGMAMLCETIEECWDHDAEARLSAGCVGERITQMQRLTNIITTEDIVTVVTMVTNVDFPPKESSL
- Sequence (chain, as listed by the source, chain 2 of 2): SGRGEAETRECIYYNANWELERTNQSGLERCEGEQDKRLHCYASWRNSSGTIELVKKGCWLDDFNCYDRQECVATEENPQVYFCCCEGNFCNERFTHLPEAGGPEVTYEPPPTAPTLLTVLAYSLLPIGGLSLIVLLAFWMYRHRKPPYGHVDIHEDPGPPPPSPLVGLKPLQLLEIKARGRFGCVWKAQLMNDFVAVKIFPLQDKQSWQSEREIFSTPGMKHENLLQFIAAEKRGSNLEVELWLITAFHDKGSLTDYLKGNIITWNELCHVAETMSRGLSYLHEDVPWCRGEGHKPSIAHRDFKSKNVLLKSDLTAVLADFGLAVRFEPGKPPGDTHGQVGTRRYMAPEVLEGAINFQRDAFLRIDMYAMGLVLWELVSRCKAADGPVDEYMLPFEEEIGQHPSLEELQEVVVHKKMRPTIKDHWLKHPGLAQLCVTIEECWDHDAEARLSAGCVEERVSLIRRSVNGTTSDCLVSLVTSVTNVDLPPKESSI
- PROTOCOL SUMMARY: cell-based or functional assay
The threshold is 400 pM. Values of IC50, Myostatin SMAD RGA beneath it are tagged t; values meeting or exceeding it are tagged f.

Use the examples below as a reference point.
Antibody Soidawürstle (antibody, V domains shown, full-length IgG; also called Soidawüsrstel) VH: QVQLVQSGAEVRKPGSSVKVSCKASGYTFTSSYINWVRQAPGQGLEWMGTINPVSGSTSYAQKFQGRVTITADTSTSTAYMELSSLRSEDTAVYYCARGGWFDYWGQGTLVTVSS VL: QSALTQPRSVSGSPGQSVTISCTGTSSDVGSYNRVNWYQQHPGKAPKLMIYGVSKRESGVPDRFSGSKSGNTASLTISGLQAEDEADYYCGTFAGGRYYGVFGGGTKLTVL; t
Antibody Schwardamaga (antibody, V domains shown, full-length IgG) VH: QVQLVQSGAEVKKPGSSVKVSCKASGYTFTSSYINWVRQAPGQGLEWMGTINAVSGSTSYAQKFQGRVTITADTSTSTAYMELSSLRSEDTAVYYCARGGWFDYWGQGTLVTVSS VL: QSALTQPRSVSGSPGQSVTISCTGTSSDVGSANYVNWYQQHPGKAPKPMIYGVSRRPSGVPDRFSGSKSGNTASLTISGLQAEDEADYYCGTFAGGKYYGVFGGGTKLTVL; f
Antibody Rippla (antibody, V domains shown, full-length IgG; also called Ripp1a) VH: QVQLVQSGAEVRKPGASVKVSCKASGYTFTSSYINWVRQAPGQGLEWMGTINPVSGSTSYAQKFQGRVTMTRDTSISTAYMELSRLRSDDTAVYYCARGGWFDYWGQGTLVTVSS VL: QSALTQPASVSGSPGQSITISCTGTSSDVGSYNRVNWYQQHPGKAPKLMIYGVSKRESGVSNRFSGSKSGNTASLTISGLQAEDEADYYCGTFAGGRYYGVFGGGTKLTVL; t

Please check: IC50, Myostatin SMAD RGA for Antibody Ofaschlupfer (antibody, V domains shown, full-length IgG) VH: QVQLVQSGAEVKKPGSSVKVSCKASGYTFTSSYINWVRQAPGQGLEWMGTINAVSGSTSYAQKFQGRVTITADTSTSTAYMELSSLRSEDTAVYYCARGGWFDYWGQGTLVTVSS VL: QSALTQPRSVSGSPGQSVTISCTGTSSDVGSKNYVNWYQQHPGKAPKLMIYGVSKRESGVPDRFSGSKSGNTASLTISGLQAEDEADYYCGTFAGGKYYGVFGGGTKLTVL , strictly under 400 pM or not?
f

Please check: IC50, Myostatin SMAD RGA for Antibody Biiramooscht (antibody, V domains shown, full-length IgG) VH: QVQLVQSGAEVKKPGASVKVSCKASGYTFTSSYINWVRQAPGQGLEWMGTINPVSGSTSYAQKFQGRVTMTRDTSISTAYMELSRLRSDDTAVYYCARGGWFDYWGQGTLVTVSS VL: QSALTQPASVSGSPGQSITISCTGTSSDVGSYNYVNWYQQHPGKAPKLMIYGVSKRESGVSNRFSGSKSGNTASLTISGLQAEDEADYYCGTFAGGAYYGVFGGGTKLTVL , strictly under 400 pM or not?
t
